Known protein stability index of a selection of variants
B1: KLHDC10 (parent)
chain: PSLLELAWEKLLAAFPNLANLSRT

variants of: B1; assay: protein stability index of a GFP-peptide fusion (GPS, HEK-293T) (PSI 1-6); higher = more stable; details: c terminus: a fixed tail appended;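 further: lentivirally expressed fusions sorted by FACS into six bins by GFP to DsRed ratio, PSI derived from sequencing read proportions per bin multiplied by bin number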
// print number alone

Quick one: give measured protein stability index for K10I
1.7

Quick one: give measured protein stability index for L3K
2.33

Quick one: give measured protein stability index for R23M
1.87

Quick one: give measured protein stability index for S2W
1.94

Quick one: give measured protein stability index for K10D
1.84

More entries:
Quick one: give measured protein stability index for L18E
2.35

Quick one: give measured protein stability index for L12V
2.44

Quick one: give measured protein stability index for E9C
1.5

Quick one: give measured protein stability index for L12M
1.85
